target.desc: SARS-CoV-2 receptor-binding domain (SARS-CoV-2, UniProt P0DTC2)
experimental.readout: binding result

>>> result("AB-3492 (antibody, V domains shown) VH: QVQLQESGPGLVKPSETLSLTCAVSGGSISSYYWNWIRQPPGKGLEWIGYIYYSGRTNYNPSLKSRVTISVDTSKNQFSLKLSSVTAADTAVYYCAREMRRGYSGYDDWDLYAFDIWGQGTMVTVSS VL: DIQLTQSPSFLSTSVGDRVTITCRASQGISSYLAWYQQKPGKAPKLLIYAASTLQSGVPSRFSGSGSGTEFTLTISSLQPEDFATYYCQQLNSYPHTFGQGTKLEIK")
"binds"
>>> result("3490 (antibody, V domains shown) VH: QVQLQESGPGLVKPSETLSLTCAVSGGSISSYYWSWIRQPPGKGLEWIGYIYYSGRTNYNPSLKSRVTISVDTSKNQFSLKLSSVTAADTAVYYCAREMRRGYSGYDDWDLYAFDIWGQGTMVTVSS VL: DIQLTQSPSFLSTSVGDRVTITCRASQGISSYLAWYQQKPGKAPKLLIYAASTLQSGVPSRFSGSGSGTEFTLTISSLQPEDFATYYCQQFNSYPHTFGQGTKLEI")
"binds"
>>> result("3577 (antibody, V domains shown) VH: QVQLQESGPGLVKPSETLSLTCTVSGGSISSYHWNWIRQPPGKGLEWIGYIYYSGNTNYNPSLKSRVSISADTSKNQFSLKLSSVTAADTAVYYCAREMRRGYSGYDYWDLYAFDIWGQGTMVTVSS VL: DIQLTQSPSFLSASVGDRVTITCRASQGISSYLAWYQQKPGKAPKLLIYTASTLQSGVPSRFSGSGSGTEFTLTISSLQPEDFATYYCQQLNSYPHTFGQGTKLEIK")
"binds"
